# System: HCT-116
# procedure-text: Cytotoxicity against vinblastine-resistant human HCT116 cells after 72 hrs
# Type: functional, cell-based
# study-conditions: HCT-116, 72 h
Mark 1.0 for IC50 under 0.8 µM, 0.0 if at or over.

Below 0.8 µM on IC50? Entry CC[C@]1(O)C[C@@H]2CN(CCc3c([nH]c4ccccc34)[C@@](C(N)=O)(c3cc4c(cc3OC)N(C)C3[C@]45CCN4CC=C[C@@](CC)([C@@H](OC(C)=O)[C@]3(O)C(=O)OC)[C@H]45)C2)C1 (stereo not given in full)
0.0

Below 0.8 µM on IC50? Entry CCOC(=O)[C@]1(c2cc3c(cc2OC)N(C)C2[C@]34CCN3CC=C[C@@](CC)([C@@H](OC(C)=O)[C@]2(O)C(=O)OC)[C@H]34)C[C@H]2CN(CCc3c1[nH]c1ccccc31)C[C@](O)(CC)C2 (stereo not given in full)
0.0

Below 0.8 µM on IC50? Entry CCC1=C[C@@H]2CN(CCc3c([nH]c4ccccc34)[C@@](C#N)(c3cc4c(cc3OC)N(C)C3[C@]45CCN4CC=C[C@@](CC)([C@@H](OC(C)=O)[C@]3(O)C(=O)OC)[C@H]45)C2)C1 (stereo not given in full)
0.0

Below 0.8 µM on IC50? Entry CCC1=C[C@@H]2CN(CCc3c([nH]c4ccccc34)[C@@](C=O)(c3cc4c(cc3OC)N(C)C3[C@]45CCN4CC=C[C@@](CC)([C@@H](OC(C)=O)[C@]3(O)C(=O)OC)[C@H]45)C2)C1 (stereo not given in full)
0.0

Below 0.8 µM on IC50? Entry CC[C@]1(O)C[C@@H]2CN(CCc3c([nH]c4ccccc34)[C@@](CCO)(c3cc4c(cc3OC)N(C)C3[C@]45CCN4CC=C[C@@](CC)([C@@H](OC(C)=O)[C@]3(O)C(=O)OC)[C@H]45)C2)C1 (stereo not given in full)
0.0

Below 0.8 µM on IC50? Entry CC[C@]1(O)C[C@@H]2CN(CCc3c([nH]c4ccccc34)[C@@](C(=O)OC)(c3cc4c(cc3OC)N(C)[C@H]3[C@@](O)(C(=O)OC)[C@H](OC(C)=O)[C@]5(CC)C=CCN6CC[C@]43[C@@H]65)C2)C1 [VINBLASTINE]
1.0

Below 0.8 µM on IC50? Entry CCOC(=O)[C@]1(c2cc3c(cc2OC)N(C)C2[C@]34CCN3CC=C[C@@](CC)([C@@H](OC(C)=O)[C@]2(O)C(=O)OC)[C@H]34)C[C@@H]2C=C(CC)CN(CCc3c1[nH]c1ccccc31)C2 (stereo not given in full)
0.0

Below 0.8 µM on IC50? Entry CC[C@]1(O)C[C@@H]2CN(CCc3c([nH]c4ccccc34)[C@@](C#N)(c3cc4c(cc3OC)N(C)C3[C@]45CCN4CC=C[C@@](CC)([C@@H](OC(C)=O)[C@]3(O)C(=O)OC)[C@H]45)C2)C1 (stereo not given in full)
0.0

Below 0.8 µM on IC50? Entry CCC1=C[C@@H]2CN(CCc3c([nH]c4ccccc34)[C@@](C(N)=O)(c3cc4c(cc3OC)N(C)C3[C@]45CCN4CC=C[C@@](CC)([C@@H](OC(C)=O)[C@]3(O)C(=O)OC)[C@H]45)C2)C1 (stereo not given in full)
0.0

Below 0.8 µM on IC50? Entry CCC1=C[C@@H]2CN(CCc3c([nH]c4ccccc34)[C@@](C(=O)OC)(c3cc4c(cc3OC)N(C)C3[C@]45CCN4CC=C[C@@](CC)([C@@H](OC(C)=O)[C@]3(O)C(=O)OC)[C@H]45)C2)C1 (stereo not given in full)
1.0
